Biological target: human TNFα (Homo sapiens, UniProt P01375)
Construct: purchased Biosource, Camarillo, Calif
Sequence (P01375 77-233 limits assumed): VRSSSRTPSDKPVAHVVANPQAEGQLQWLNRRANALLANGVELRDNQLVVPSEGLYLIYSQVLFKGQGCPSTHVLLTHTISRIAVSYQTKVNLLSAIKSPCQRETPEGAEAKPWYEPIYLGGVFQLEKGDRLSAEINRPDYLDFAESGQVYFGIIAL
Test: p55 Receptor/IgG Fusion Protein Binding Assay (inhibition of TNFα capture by p55-Ig coated plate)
Settings: peptide 1 mM; TNFα 25 ng/ml
value-type: inhibition of binding of TNFα to p55TNFr-IgG chimeric construct (%)

Take a look at these entries with their results.
substance	system	unit-tag	number
SEQ ID NO:35: peptide of the invention that inhibits TNFα; sequence not printed (VADSAEDSTYTQLWN)	human TNFα (Homo sapiens, UniProt P01375)	%	72
SEQ ID NO:51: peptide of the invention that inhibits TNFα; sequence not printed (PGNASRDAVATSTSP)	human TNFα (Homo sapiens, UniProt P01375)	%	68
SEQ ID NO:40: peptide of the invention that inhibits TNFα; sequence not printed (WVPEALSAGSRASSD)	human TNFα (Homo sapiens, UniProt P01375)	%	72

a: SEQ ID NO:41: peptide of the invention that inhibits TNFα; sequence not printed (EALSAGSRASSDQVE)
b: SEQ ID NO:42: peptide of the invention that inhibits TNFα; sequence not printed (SSDQVETQAATREQN)
Problem: Could you please tell me which of these two has the higher inhibition of binding of TNFα to p55TNFr-IgG chimeric construct: a or b ? State the label of the item chosen.
Result: a
